test system: rat peritoneal mast cells; experiment: In vitro histamine induction in rat peritoneal mast cells; assay type: cell-based
Square brackets hold non-standard residues; d marks the D form. Peptide text beside a SMILES is read from it. dNva = CCC[C@@H](N)C(=O)O
Respond with 1 for Histamine in vitro Fold change of non-treated at 10 uM values of 2 fold and above, -1 for values below.

# MOLECULE, TARGET OR SYSTEM, CLASS NAME
records = [
    ("CCC[C@@H](NC(=O)[C@@H](CS)NC(C)=O)C(=O)N[C@H](CCCNC(=N)N)C(=O)N[C@H](CCCNC(=N)N)C(=O)N[C@H](CCCNC(=N)N)C(=O)N[C@H](C)C(=O)N[C@H](CCCNC(=N)N)C(N)=O [SEQ ID NO: 136, Ac-c-dNva-rrrar-NH2] (Ac-[dC][dNva][dR][dR][dR][dA][dR]-NH2)", "rat peritoneal mast cells", 1),
    ("CC[C@@H](C)[C@@H](NC(=O)[C@@H](CCCNC(=N)N)NC(=O)[C@@H](CCCNC(=N)N)NC(=O)[C@@H](CCCNC(=N)N)NC(=O)[C@@H](C)NC(=O)[C@@H](CS)NC(C)=O)C(=O)N[C@H](CCCNC(=N)N)C(N)=O [SEQ ID NO: 84, Ac-carrrir-NH2] (Ac-[dC][dA][dR][dR][dR][dI][dR]-NH2)", "rat peritoneal mast cells", -1),
    ("CC(=O)N[C@H](CS)C(=O)N[C@H](CCCNC(=N)N)C(=O)N[C@H](CCCNC(=N)N)C(=O)N[C@@H](C(=O)N[C@H](CCCNC(=N)N)C(=O)N[C@H](C)C(=O)N[C@H](CCCNC(=N)N)C(N)=O)[C@H](C)O [SEQ ID NO: 108, Ac-crrtrar-NH2] (Ac-[dC][dR][dR][dT][dR][dA][dR]-NH2)", "rat peritoneal mast cells", -1),
    ("CC(=O)N[C@H](CS)C(=O)N[C@H](CO)C(=O)N[C@H](CCCNC(=N)N)C(=O)N[C@H](CCCNC(=N)N)C(=O)N[C@H](CCCNC(=N)N)C(=O)N[C@H](C)C(=O)N[C@H](CCCNC(=N)N)C(N)=O [SEQ ID NO: 102, Ac-csrrrar-NH2] (Ac-[dC][dS][dR][dR][dR][dA][dR]-NH2)", "rat peritoneal mast cells", -1),
    ("CC(=O)N[C@H](CS)C(=O)N[C@H](CCCNC(=N)N)C(=O)N[C@H](CCCNC(=N)N)C(=O)N1CCC[C@@H]1C(=O)N[C@H](CCCNC(=N)N)C(=O)N[C@H](C)C(=O)N[C@H](CCCNC(=N)N)C(N)=O [SEQ ID NO: 106, Ac-crrprar-NH2] (Ac-[dC][dR][dR][dP][dR][dA][dR]-NH2)", "rat peritoneal mast cells", -1),
    ("CC(=O)N[C@H](CS)C(=O)NCC(=O)N[C@H](CCCNC(=N)N)C(=O)N[C@H](CCCNC(=N)N)C(=O)N[C@H](CCCNC(=N)N)C(=O)N[C@H](C)C(=O)N[C@H](CCCNC(=N)N)C(N)=O [SEQ ID NO: 95, Ac-cGrrrar-NH2] (Ac-[dC]G[dR][dR][dR][dA][dR]-NH2)", "rat peritoneal mast cells", -1),
    ("CC(=O)N[C@H](CS)C(=O)N[C@H](CCCNC(=N)N)C(=O)N[C@H](CCCNC(=N)N)C(=O)N[C@H](C)C(=O)N[C@H](CCCNC(=N)N)C(=O)N[C@H](CCCNC(=N)N)C(=O)N[C@H](CCCNC(=N)N)C(N)=O [SEQ ID NO: 10, Ac-crrarrr-NH2] (Ac-[dC][dR][dR][dA][dR][dR][dR]-NH2)", "rat peritoneal mast cells", 1),
    ("CC(=O)N[C@H](CS)C(=O)N[C@H](C)C(=O)N[C@H](CCCNC(=N)N)C(=O)N[C@H](CCCNC(=N)N)C(=O)N[C@H](CCCNC(=N)N)C(=O)NCC(=O)N[C@H](CCCNC(=N)N)C(N)=O [SEQ ID NO: 93, Ac-carrrGr-NH2] (Ac-[dC][dA][dR][dR][dR]G[dR]-NH2)", "rat peritoneal mast cells", -1),
    ("CC(=O)N[C@H](CS)C(=O)N[C@H](CCCNC(=N)N)C(=O)N[C@H](C)C(=O)N[C@H](CCCNC(=N)N)C(=O)N[C@H](CCCNC(=N)N)C(=O)N[C@H](CCCNC(=N)N)C(=O)N[C@H](C)C(N)=O [SEQ ID NO: 20, Ac-crarrra-NH2] (Ac-[dC][dR][dA][dR][dR][dR][dA]-NH2)", "rat peritoneal mast cells", -1),
    ("CC(=O)N[C@H](CS)C(=O)N[C@H](CCCNC(=N)N)C(=O)N[C@H](CCCNC(=N)N)C(=O)N[C@H](Cc1c[nH]cn1)C(=O)N[C@H](CCCNC(=N)N)C(=O)N[C@H](C)C(=O)N[C@H](CCCNC(=N)N)C(N)=O [SEQ ID NO: 109, Ac-crrhrar-NH2] (Ac-[dC][dR][dR][dH][dR][dA][dR]-NH2)", "rat peritoneal mast cells", 1),
    ("CC(=O)N[C@H](CS)C(=O)N[C@H](CC(C)C)C(=O)N[C@H](CCCNC(=N)N)C(=O)N[C@H](CCCNC(=N)N)C(=O)N[C@H](CCCNC(=N)N)C(=O)N[C@H](C)C(=O)N[C@H](CCCNC(=N)N)C(N)=O [SEQ ID NO: 98, Ac-clrrrar-NH2] (Ac-[dC][dL][dR][dR][dR][dA][dR]-NH2)", "rat peritoneal mast cells", 1),
    ("CC(=O)N[C@H](CS)C(=O)N[C@H](C)C(=O)N[C@H](C)C(=O)N[C@H](CCCNC(=N)N)C(=O)N[C@H](CCCNC(=N)N)C(=O)N[C@H](CCCNC(=N)N)C(=O)N[C@H](CCCNC(=N)N)C(N)=O [SEQ ID NO: 22, Ac-caarrrr-NH2] (Ac-[dC][dA][dA][dR][dR][dR][dR]-NH2)", "rat peritoneal mast cells", -1),
    ("CC(=O)N[C@H](CS)C(=O)N[C@H](CCCNC(=N)N)C(=O)N[C@H](CCCNC(=N)N)C(=O)N[C@H](CCCNC(=N)N)C(=O)N[C@H](C)C(=O)N[C@H](CCCNC(=N)N)C(=O)N[C@H](CCCNC(=N)N)C(N)=O [SEQ ID NO: 11, Ac-crrrarr-NH2] (Ac-[dC][dR][dR][dR][dA][dR][dR]-NH2)", "rat peritoneal mast cells", 1),
]

* * *

test system: plasma PTH; assay: In vivo PTH lowering after IV bolus in isoflurane-anesthetized normal Sprague Dawley rats; set-up: species or system rat; conditions: Table 6; normal rats, AUC 1-4 h
Square brackets hold non-standard residues; d marks the D form. Peptide text beside a SMILES is read from it.
Each entry below carries its reported 0.5 mg/kg IV bolus % PTH AUC of saline control.
QUANTITY MEASURED: 0.5 mg/kg IV bolus % PTH AUC of saline control

# MOLECULE, OBS VALUE
rows = [
    ("CC(=O)N[C@H](CS)C(=O)N[C@H](C)C(=O)N[C@H](CCCNC(=N)N)C(=O)N[C@H](CCCNC(=N)N)C(=O)N[C@H](CCCNC(=N)N)C(=O)N1CCC[C@@H]1C(=O)N[C@H](CCCNC(=N)N)C(N)=O [SEQ ID NO: 88, Ac-carrrpr-NH2] (Ac-[dC][dA][dR][dR][dR][dP][dR]-NH2)", "76%"),
    ("CC(=O)N[C@H](CS)C(=O)N[C@H](CCCNC(=N)N)C(=O)N[C@H](CCCNC(=N)N)C(=O)N[C@@H](C(=O)N[C@H](CCCNC(=N)N)C(=O)N[C@H](C)C(=O)N[C@H](CCCNC(=N)N)C(N)=O)[C@H](C)O [SEQ ID NO: 108, Ac-crrtrar-NH2] (Ac-[dC][dR][dR][dT][dR][dA][dR]-NH2)", "13%"),
    ("CC(=O)N[C@H](CS)C(=O)N[C@H](CCCNC(=N)N)C(=O)N[C@H](CCCNC(=N)N)C(=O)N[C@@H](C(=O)N[C@H](CCCNC(=N)N)C(=O)N[C@H](C)C(=O)N[C@H](CCCNC(=N)N)C(N)=O)C(C)C [SEQ ID NO: 113, Ac-crrvrar-NH2] (Ac-[dC][dR][dR][dV][dR][dA][dR]-NH2)", "3%"),
]

* * *

Measured EC50 of individual entries
Molecular target: human calcium-sensing receptor (CaSR) (Homo sapiens)
Construct: expressed in transfected cells; host or cells: HEK 293T cells, transiently transfected (lipofectamine 2000); in some cases HEK293 cells stably transfected
Sequence (P41180 20-1078): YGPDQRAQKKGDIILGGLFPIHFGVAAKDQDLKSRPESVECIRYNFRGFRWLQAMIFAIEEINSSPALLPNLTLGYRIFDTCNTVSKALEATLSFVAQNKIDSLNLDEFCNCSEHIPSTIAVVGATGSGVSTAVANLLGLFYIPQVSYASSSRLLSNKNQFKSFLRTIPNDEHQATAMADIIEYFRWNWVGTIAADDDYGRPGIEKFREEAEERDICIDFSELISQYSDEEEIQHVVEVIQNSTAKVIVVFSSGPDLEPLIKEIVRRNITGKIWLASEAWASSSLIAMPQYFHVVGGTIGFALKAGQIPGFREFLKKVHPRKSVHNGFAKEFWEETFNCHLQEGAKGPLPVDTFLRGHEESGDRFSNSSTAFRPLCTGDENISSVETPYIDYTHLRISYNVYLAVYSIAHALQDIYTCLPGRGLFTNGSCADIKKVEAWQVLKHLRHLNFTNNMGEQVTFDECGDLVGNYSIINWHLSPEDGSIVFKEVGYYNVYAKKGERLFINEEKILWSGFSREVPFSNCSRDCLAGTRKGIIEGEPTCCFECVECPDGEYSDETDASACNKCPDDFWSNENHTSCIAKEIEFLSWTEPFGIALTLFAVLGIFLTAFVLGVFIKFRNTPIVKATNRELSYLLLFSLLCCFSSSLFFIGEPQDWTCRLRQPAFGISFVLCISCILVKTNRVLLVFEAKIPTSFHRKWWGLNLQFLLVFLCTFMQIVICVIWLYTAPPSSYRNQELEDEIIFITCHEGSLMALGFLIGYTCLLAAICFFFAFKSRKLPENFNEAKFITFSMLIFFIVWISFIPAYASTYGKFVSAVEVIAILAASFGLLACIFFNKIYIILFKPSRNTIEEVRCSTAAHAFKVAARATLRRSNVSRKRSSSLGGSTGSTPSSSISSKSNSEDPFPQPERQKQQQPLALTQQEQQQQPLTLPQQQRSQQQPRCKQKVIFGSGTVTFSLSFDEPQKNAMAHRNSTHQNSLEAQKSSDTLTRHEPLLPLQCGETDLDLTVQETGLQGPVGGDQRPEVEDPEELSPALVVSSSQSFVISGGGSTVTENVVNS
Test: In vitro cell assay in HEK-293 expressing the human calcium-sensing receptor (IP1 production)
Format: cell-based
Conditions: Table 5; IP1 production in HEK293 cells expressing human CaSR, eight concentrations in duplicate; read-out: EC50 in CaSR in vitro assay
Square brackets hold non-standard residues; d marks the D form. Peptide text beside a SMILES is read from it.
QUANTITY MEASURED: EC50

# MOLECULE, OBS VALUE
records = [
    ("CC(=O)N[C@H](CS)C(=O)N[C@H](C)C(=O)N[C@H](CCCNC(=N)N)C(=O)N[C@H](CCCNC(=N)N)C(=O)N[C@H](CCCNC(=N)N)C(=O)N[C@H](C)C(=O)N[C@H](CCCNC(=N)N)C(=O)N[C@H](C)C(=O)N[C@H](CCCNC(=N)N)C(N)=O [SEQ ID NO: 79, Ac-carrrarar-NH2] (Ac-[dC][dA][dR][dR][dR][dA][dR][dA][dR]-NH2)", "13 µM"),
    ("CC(=O)N[C@H](CS)C(=O)N[C@H](C)C(=O)N[C@H](CCCNC(=N)N)C(=O)N[C@H](C)C(=O)N[C@H](CCCNC(=N)N)C(=O)N[C@H](C)C(=O)N[C@H](CCCNC(=N)N)C(=O)N[C@H](C)C(=O)N[C@H](CCCNC(=N)N)C(N)=O [SEQ ID NO: 78, Ac-carararar-NH2] (Ac-[dC][dA][dR][dA][dR][dA][dR][dA][dR]-NH2)", "5.3 µM"),
    ("CC(=O)N[C@H](CS)C(=O)N[C@H](CCCNC(=N)N)C(=O)N[C@H](CCCNC(=N)N)C(=O)N[C@H](C)C(=O)N[C@H](CCCNC(=N)N)C(=O)N[C@H](CCCNC(=N)N)C(=O)N[C@H](CCCNC(=N)N)C(N)=O [SEQ ID NO: 10, Ac-crrarrr-NH2] (Ac-[dC][dR][dR][dA][dR][dR][dR]-NH2)", "1.1 µM"),
]

Every entry's value here was drawn from patent US10280198B2.
